# Tested on: K4 kissing-loop RNA reporter;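 further: bound reporter read as fluorescence of individual clusters on recovered sequencing chips by microscopy, with normalized cluster intensities fitted with a binding model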
# test_name: apparent KD of K4 kissing-loop reporter; higher = weaker reporter binding
# protocol_conditions: Eterna round: R107; input ligand: tryptophan 2.4 mM
Please provide measured apparent KD of K4 kissing-loop reporter for the entries that follow.
Answer in nM, number only, no unit symbol.

Enter reported apparent KD of K4 kissing-loop reporter observed with K4 kissing-loop RNA reporter for AGAUAGGGCUGAAGGAGCGUCGGAGAAGAGAAGAAGGAAUCCAGUGAUGUUGGAUAGAUCCGACAGGUAGGUCGCAGUUUUAUGA [hbob_SS_Arginine_B_2t139]
124

Query "GCCGUAGAUUGAAGGAGCGUGGACCUAUCGCUUGAACAGUGAUGUUGUUUAUCUAGGGAGCCGCAGGUAGGUCGCAAUCUACGGC" next
386

Queued: GCGUCUGUCGGAAGGAGCGCACUAUGGAGUGAUGUUCCAUGACCGCACAGCUUGCGGUCAGUGCAGGUAGGUCGCCGAUAGCGUU [Diestera]
144

src = the supplement of paper PMC9170038
